molecular target: LDH-A (Homo sapiens, UniProt P00338); test: Enzyme kinetics, NADH-competition, mixed-model inhibition fit; type: biochemical
Observation Type: Ki (µM)

{"columns": ["Compound", "Test Target", "Observed"],
 "data": [
  ["O=C(O)c1cc2c(C(F)(F)F)cc(-c3ccccc3)cc2n1O [Compound 1]", "LDH-A (Homo sapiens, UniProt P00338)", 10.8],
  ["Cc1nc2ccc(NC(=O)CCNC(=O)CCCc3ccc(CC(C(=O)O)C(=O)O)cc3)cc2s1 [Compound 3, reference compound]", "LDH-A (Homo sapiens, UniProt P00338)", 0.23]
]}

###

system: HeLa cells; assay: Anticancer potency, 72 hour Sulforhodamine B assay; format: cell-based, human; settings: Homo sapiens, HeLa, 72 h, read-out: Anticancer potency, 72 hour IC50
pIC50: −log10 of the molar value.

{"columns": ["Compound", "Readout Relation", "pIC50"],
 "data": [
  ["Cc1nc2ccc(NC(=O)CCNC(=O)CCCc3ccc(CC(C(=O)O)C(=O)O)cc3)cc2s1 [Compound 3, reference compound]", "<", 3.30],
  ["O=C(O)c1cc2c(C(F)(F)F)cc(-c3ccccc3)cc2n1O [Compound 1]", "=", 4.36],
  ["COC(=O)c1cc2c(C(F)(F)F)cc(-c3ccccc3)cc2n1O [Compound 2]", "=", 4.48],
  ["COC(=O)C(Cc1ccc(CCCC(=O)NCCC(=O)Nc2ccc3nc(C)sc3c2)cc1)C(=O)OC [Compound 4, reference compound]", "=", 4.12]
]}

These measurements were taken from paper PMC3828658.
